- Procedure text: log P by HPLC on reversed-phase column (C 18), EEC Directive 79/831 Annex V.A8
- Assay type: physicochemical
- Stated conditions: log P, neutral range; HPLC on reversed-phase column (C 18), 55° C.
Property label: LOGP_NEUTRAL
Give bare numbers.

Reference set, count: 2
Compound | Property label | Reading
N#Cc1ccc(CNC(=O)c2cc(-c3ccc(OC(F)(F)F)cc3)cc(NC(=O)C3CC3)n2)cn1 | LOGP_NEUTRAL | 3.37
CC(NC(=O)c1cc(-c2ccc(C(F)(F)F)cc2)cc(NC(=O)C2CC2)n1)c1ccc(C#N)cc1 (stereo not drawn) | LOGP_NEUTRAL | 3.94

Go through the items and report each one's LOGP_NEUTRAL.
1. N#CC1(NC(=O)c2cc(-c3ccc(C(F)(F)F)cc3)cc(NC(=O)C3CC3)n2)CC1
2. CC(C)C(=O)Nc1cc(-c2ccc(OC(F)(F)F)cc2)cc(C(=O)NCc2cc(F)c(C#N)cc2F)n1
3. N#Cc1cccc(CCNC(=O)c2cc(-c3ccc(OC(F)(F)F)cc3)cc(NC(=O)C3CC3)n2)c1
4. CC(NC(=O)c1cc(-c2ccc(OC(F)(F)F)cc2)cc(NC(=O)C2CC2)n1)c1ccc(C#N)cc1 (single isomer, unassigned) [Example I-219]
5. N#CC1CCC(CNC(=O)c2cc(-c3ccc(OC(F)(F)F)cc3)cc(NC(=O)C3CC3)n2)CC1 (stereo not drawn) [Example I-161]
6. COC(C)C(=O)Nc1cc(-c2ccc(OC(F)(F)F)cc2)cc(C(=O)NCc2ccc(C#N)cc2)n1 (stereo not drawn)

1: 3.18; 2: 4.19; 3: 3.88; 4: 4.02; 5: 3.74; 6: 3.91
